Quick list: GVS mass / total weight change per entry.
assaySummary: Gravimetric vapour sorption (GVS) isotherm
Type: physicochemical
particulars: between 0-90% RH
Answer with a number only, understood to be in %.

compound: Cn1cc(-c2nc(N[C@@H]3CCCC[C@@H]3N)c(F)c3c2C(=O)NC3)cn1 [Form 14]
metric: GVS mass / total weight change
unitsText: %
measurement: 1.5

Please find the next compound below.
Value of GVS mass / total weight change reported for the compound Cn1cc(-c2nc(N[C@@H]3CCCC[C@@H]3N)c(F)c3c2C(=O)NC3)cn1 [Form 15] is 2.0

====

assaySummary: Storage at elevated temperature/humidity, form checked by XRPD
Format: physicochemical
particulars: exposure to humidity

compound: Cn1cc(-c2nc(N[C@@H]3CCCC[C@@H]3N)c(F)c3c2C(=O)NC3)cn1 [Form 4]
stability to moisture / humidity: stable to moisture

compound: Cn1cc(-c2nc(N[C@@H]3CCCC[C@@H]3N)c(F)c3c2C(=O)NC3)cn1 [Form 5]
stability to moisture / humidity: stable to moisture

====

assaySummary: Solubility of solid forms
Format: physicochemical
particulars: water, pH 9.05, pH 9.05; read-out: aqueous solubility
metric: solubility (µg/mL)
Give just the numeric value; µg/mL need not be written.

Looking up Cn1cc(-c2nc(N[C@@H]3CCCC[C@@H]3N)c(F)c3c2C(=O)NC3)cn1 [Form 13] , I found its solubility recorded as 190

====

assaySummary: Solubility of solid forms
Format: physicochemical
particulars: water, pH 9.41, pH 9.41; read-out: aqueous solubility
metric: solubility (µg/mL)
Field format: number, assumed µg/mL, no unit text.

Looking up Cn1cc(-c2nc(N[C@@H]3CCCC[C@@H]3N)c(F)c3c2C(=O)NC3)cn1 [Form 12] , I see its solubility listed as 580

====

assaySummary: Plasma pharmacokinetics in patients, oral once daily dosing
particulars: human, in vivo; plasma, 11 patients at 60 and 120 mg oral QD; read-out: median Tmax
metric: Tmax (h)
Report only the number, with the unit h understood.

Please fill in: Tmax reported for Cn1cc(-c2nc(N[C@@H]3CCCC[C@@H]3N)c(F)c3c2C(=O)NC3)cn1 [Form 1] = 2

====

assaySummary: Solubility of solid forms
Type: physicochemical
particulars: medium not given; read-out: solubility
metric: solubility (mg/mL)
State just the number; it will be interpreted in mg/mL.

# compound Cn1cc(-c2nc(N[C@@H]3CCCC[C@@H]3N)c(F)c3c2C(=O)NC3)cn1 [Form 5] ; its solubility = 11

====

assaySummary: Solubility of solid forms
Assay type: physicochemical
particulars: water, pH 9.33, pH 9.33; read-out: aqueous solubility
metric: solubility (µg/mL)
Please respond with the number in µg/mL and leave the unit unwritten.

Lab book: solubility of Cn1cc(-c2nc(N[C@@H]3CCCC[C@@H]3N)c(F)c3c2C(=O)NC3)cn1 [Form 17] noted as 180

====

assaySummary: Solubility of solid forms
Assay type: physicochemical
particulars: water, pH 9.27, pH 9.27; read-out: aqueous solubility
metric: solubility (µg/mL)
Unit µg/mL implied. Number only.

Per the records, this molecule ( Cn1cc(-c2nc(N[C@@H]3CCCC[C@@H]3N)c(F)c3c2C(=O)NC3)cn1 [Form 16] ) has solubility equal to 130

====

assaySummary: Storage at elevated temperature/humidity, form checked by XRPD
Type: physicochemical
particulars: 25° C./97% RH, duration not given

compound: Cn1cc(-c2nc(N[C@@H]3CCCC[C@@H]3N)c(F)c3c2C(=O)NC3)cn1 [Form 13]
stability on storage: stable
--
compound: Cn1cc(-c2nc(N[C@@H]3CCCC[C@@H]3N)c(F)c3c2C(=O)NC3)cn1 [Form 15]
stability on storage: stable
--
compound: Cn1cc(-c2nc(N[C@@H]3CCCC[C@@H]3N)c(F)c3c2C(=O)NC3)cn1 [Form 14]
stability on storage: stable
--
compound: Cn1cc(-c2nc(N[C@@H]3CCCC[C@@H]3N)c(F)c3c2C(=O)NC3)cn1 [Form 17]
stability on storage: stable
